Each recorded value in this set is attributed to paper PMC8651787.

Target or test system: T1, TNKS1-Arc1 (183–335aa) (human, UniProt O95271 183-335)
T1 construct: human Tankyrase-1 (TNKS1), ARC (Ankyrin Repeat Cluster) domain 1, residues 183-335; pET24b plasmid; also called Arc I; ArcI; source: E. coli BL21 (DE3), purified (Ni-NTA Agarose); not shown: His6, C-terminal, kept
T1 sequence (looked up): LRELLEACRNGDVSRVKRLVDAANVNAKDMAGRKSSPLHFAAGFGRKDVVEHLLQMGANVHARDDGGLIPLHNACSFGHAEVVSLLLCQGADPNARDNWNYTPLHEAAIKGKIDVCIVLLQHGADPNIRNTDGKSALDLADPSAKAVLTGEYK
Measurement description: BLI; Octet RED96; GST fusion proteins loaded on GST biosensors at 10 ug/ml; TNKS1-Arc1 as analyte (0.16-4.56 μM); 25 °C; 25 mM Hepes pH 7.4, 150 mM NaOAc, 0.2% Triton, 1 mM DTT; steady-state fit
Condition description: both partners purified

| Binder | Kd |
| --- | --- |
| GST-Golgin45 N70 S15D (domain or fragment, human, UniProt Q9H2G9 1-70, looked up, Golgin45 (BLZF1), N-terminal residues 1-70, phospho-mimicking S15D in the Cdc2 consensus 15SPIR18; also called S15D mutated GST-Golgin45; Golgin45 S15D mutant; source: E. coli BL21 (DE3), purified (Glutathione HiCap Matrix)) MTTKNLETKVTVTSDPIRGAGDGMETEEPPKSVEVTSGVQSRKHHSLQSPWKKAVPSESPGVLQLGKMLT | 2780 nM |
| GST-Golgin45 N-terminal domain (amino acid 1–70) (domain or fragment, human, UniProt Q9H2G9 1-70, looked up, Golgin45 (BLZF1), N-terminal residues 1-70; pGEX-6p-1 plasmid; also called GST-Golgin45 N70 wt; Golgin45 N70 WT; source: E. coli BL21 (DE3), purified (Glutathione HiCap Matrix)) MTTKNLETKVTVTSSPIRGAGDGMETEEPPKSVEVTSGVQSRKHHSLQSPWKKAVPSESPGVLQLGKMLT | ~1460 nM |
